Test system: HCV replicon cells
Assay: Cell-based HCV replicon assay (replicon RNA level by real time PCR, Taqman)
Conditions: Hepatitis C virus, 72 h, HCV replicon cells, harvested day 3, replicon RNA by real time PCR; reported as range class; read-out: EC90 (μM) range
READOUT_NAME: EC90

Below, 3 compounds whose answers are already recorded.
CHEMICAL_STRUCTURE	EC90
Nc1nc(Cl)c(-c2ccccc2Oc2ccccc2)c(N[C@@H]2C[C@H](CO)[C@@H](O)[C@H]2O)n1	> 5 µM
CCOc1ccc2nc(-c3c(Cl)nc(N(C)C)nc3N[C@@H]3C[C@H](CO)[C@@H](O)[C@H]3O)sc2c1	> 5 µM
COC[C@H]1C[C@@H](Nc2nc(N(C)C)nc(Cl)c2-c2nc3ccccc3s2)[C@@H]2OC(C)(C)O[C@H]12	> 5 µM

Could you share which EC90 value was measured for `Cc1ccc2oc(-c3c(Cl)nc(N)nc3N[C@@H]3C[C@H](CO)[C@H]4OC(C)(C)O[C@H]43)nc2c1` ?
> 5 µM

One more compound: `CC1(C)O[C@@H]2[C@@H](CO)C[C@@H](Nc3nc(N)nc(Cl)c3-c3nc4ccc(OCc5ccccc5)cc4s3)[C@@H]2O1`
> 5 µM

One more compound: `Nc1nc(Cl)c(-c2ccc(C=O)o2)c(N[C@@H]2C[C@H](CO)[C@@H](O)[C@H]2O)n1`
> 5 µM

One more compound: `OC[C@H]1C[C@@H](Nc2nc(NCCC(F)(F)F)nc(Cl)c2-c2nc3ccccc3s2)[C@H](O)[C@@H]1O`
< 0.5 µM

One more compound: `Nc1ncc(-c2cc3ccncc3o2)c(N[C@@H]2C[C@H](CO)[C@@H](O)[C@H]2O)n1`
0.5 to 5 µM

One more compound: `COc1cc2cc(-c3c(Cl)nc(N)nc3N[C@@H]3C[C@H](CO)[C@@H](O)[C@H]3O)oc2cn1`
< 0.5 µM

One more compound: `OCCNc1nc(Cl)c(-c2nc3ccccc3s2)c(N[C@@H]2C[C@H](CO)[C@@H](O)[C@H]2O)n1`
< 0.5 µM

One more compound: `CCCc1cc2cc(-c3c(Cl)nc(N)nc3N[C@@H]3C[C@H](CO)[C@@H](O)[C@H]3O)oc2cn1`
< 0.5 µM

* * *

Test system: HCV replicon cells
Experiment: Cell-based HCV replicon assay (replicon RNA level by real time PCR, Taqman)
Conditions: Hepatitis C virus, 72 h, HCV replicon cells, harvested on day 3, replicon RNA by real time PCR; calculated EC90 reported as range class; read-out: EC90 (μM) range
READOUT_NAME: EC90

Below, 10 compounds whose answers are already recorded.
COMPOUND	EC90
Cc1nc(NCc2cccs2)nc(N[C@@H]2C[C@H](CO)[C@@H](O)[C@H]2O)c1-c1nc2ccccc2s1	< 0.5 µM
Cc1nc(NCc2cccs2)nc(N[C@@H]2CCCC2=O)c1-c1nc2ccccc2s1 (racemic)	< 0.5 µM
Cc1csc(CNc2nc(C)c(-c3nc4ccccc4s3)c(N[C@@H]3C[C@H](CO)[C@@H](O)[C@H]3O)n2)c1	< 0.5 µM
CCCCCNc1nc(Cl)c(-c2cc3cc(CCC)nc(C)c3o2)c(N[C@@H]2C[C@H](CO)[C@@H](O)[C@H]2O)n1	< 0.5 µM
Cc1nc(NCc2ccccc2C(F)(F)F)nc(N[C@@H]2C[C@H](CO)[C@H]3OC(C)(C)O[C@H]32)c1-c1nc2ccccc2s1	> 5 µM
Cc1nc(NCc2cccnc2)nc(N[C@@H]2C[C@H](CO)[C@H]3OC(C)(C)O[C@H]32)c1-c1nc2ccccc2s1	< 0.5 µM
Cc1nc(NCc2ccco2)nc(N[C@@H]2C[C@H](CO)[C@@H](O)[C@H]2O)c1-c1nc2ccccc2s1	< 0.5 µM
CCCCCCNc1nc(C)c(-c2nc3ccccc3s2)c(N[C@@H]2C[C@H](CO)[C@@H](O)[C@H]2O)n1	< 0.5 µM
Cc1cc(C)cc(CNc2nc(C)c(-c3nc4ccccc4s3)c(N[C@@H]3C[C@H](CO)[C@H]4OC(C)(C)O[C@H]43)n2)c1	< 0.5 µM
Cc1nc(NCCN(C)C)nc(N[C@@H]2C[C@H](CO)[C@@H](O)[C@H]2O)c1-c1nc2ccccc2s1	> 5 µM

Which EC90 is reported with HCV replicon cells for this entry: `CC(C)(C)CNc1nc(Cl)c(-c2nc3ccccc3s2)c(N[C@@H]2C[C@H](CO)[C@@H](O)[C@H]2O)n1` ?
< 0.5 µM

One more compound: `Cc1nc(NCc2ncccn2)nc(N[C@@H]2C[C@H](CO)[C@@H](O)[C@H]2O)c1-c1nc2ccccc2s1`
< 0.5 µM

One more compound: `Cc1nc(NCc2cccs2)nc(N[C@@H]2CC[C@H]3OC4(CCCCC4)O[C@@H]23)c1-c1nc2ccccc2s1`
> 5 µM

One more compound: `Cc1nc(NCc2nccs2)nc(N[C@@H]2C[C@H](CO)[C@H]3OC(C)(C)O[C@H]32)c1-c1nc2ccccc2s1`
< 0.5 µM

One more compound: `COc1cc(CNc2nc(C)c(-c3nc4ccccc4s3)c(N[C@@H]3C[C@H](CO)[C@@H](O)[C@H]3O)n2)cc(OC)c1OC`
< 0.5 µM

One more compound: `Cc1nc(NCC(F)(F)F)nc(N[C@@H]2C[C@H](CO)[C@H]3OC(C)(C)O[C@H]32)c1-c1cc2cc(C(F)(F)F)ncc2o1`
0.5 to 5 µM

The reported numbers originate from patent US8697694B2.
